# Tested on: MOLT-4 cells
# test details: MOLT-4 Cell Proliferation Assay (CellTiter-Glo)
# Assay type: cell-based
# condition info: Homo sapiens, 72 h, read-out: MOLT-4 CTG IC50
pIC50: −log10 of the molar value.
The entries below are paired with their reported pIC50.
quantity: pIC50

* Cc1cc([C@H](C(=O)N2C[C@H](O)C[C@H]2C(=O)N[C@@H](CC(=O)NCCCCCC(=O)N2CCN(CC[C@H](CSc3ccccc3)Nc3ccc(S(=O)(=O)NC(=O)c4ccc(N5CCN(CC6=C(C78CC(C(F)F)(C7)C8)CC(C)(C)CC6)CC5)cc4)cc3S(=O)(=O)C(F)(F)F)CC2)c2ccc(-c3scnc3C)cc2)C(C)C)on1 | ≤ 6.82
* CC1(C)CCC(CN2CCN(c3ccc(C(=O)NS(=O)(=O)c4ccc(N[C@H](CCN5CCN(CCCCCNc6cccc7c6CN(C6CCC(=O)NC6=O)C7=O)CC5)CSc5ccccc5)c(S(=O)(=O)C(F)(F)F)c4)cc3)CC2)=C(C23CC(C(F)F)(C2)C3)C1 (stereo partly shown) | 6.82 to 7.30
* CC1(C)CCC(CN2CCN(c3ccc(C(=O)NS(=O)(=O)c4ccc(N[C@H](CCN5CCN(CCCCCNc6cccc7c6C(=O)N(C6CCC(=O)NC6=O)C7=O)CC5)CSc5ccccc5)c(S(=O)(=O)C(F)(F)F)c4)cc3)CC2)=C(C23CC(C)(C2)C3)C1 (stereo partly shown) | 6.82 to 7.30
* Cc1ncsc1-c1ccc([C@H](C)NC(=O)[C@@H]2C[C@@H](O)CN2C(=O)[C@@H](NC(=O)CCCCCCC(=O)N2CCN(CC[C@H](CSc3ccccc3)Nc3ccc(S(=O)(=O)NC(=O)c4ccc(N5CCN(CC6=C(C78CC(C(F)F)(C7)C8)CC(C)(C)CC6)CC5)cc4)cc3S(=O)(=O)C(F)(F)F)CC2)C(C)(C)C)cc1 | 6.82 to 7.30

----------
# System: MOLT-4 cells
# test details: MOLT-4 Cell Proliferation Assay (CellTiter-Glo)
# Type: cell-based
# condition info: Homo sapiens, 72 h, read-out: MOLT-4 CTG IC50
pIC50: −log10 of the molar value.
quantity: pIC50

- Cc1ncsc1-c1ccc([C@H](C)NC(=O)[C@@H]2C[C@@H](O)CN2C(=O)[C@@H](NC(=O)CCCCC(=O)N(C)C2CCN(CC[C@H](CSc3ccccc3)Nc3ccc(S(=O)(=O)NC(=O)c4ccc(N5CCN(CC6=C(C78CC(C(F)F)(C7)C8)CC(C)(C)CC6)CC5)cc4)cc3S(=O)(=O)C(F)(F)F)CC2)C(C)(C)C)cc1: 6.82 to 7.30
- Cc1ncsc1-c1ccc([C@H](CC(=O)NCCCCCCN2CCN(CC[C@H](CSc3ccccc3)Nc3ccc(S(=O)(=O)NC(=O)c4ccc(N5CCN(CC6=C(C78CC(C(F)F)(C7)C8)CC(C)(C)CC6)CC5)cc4)cc3S(=O)(=O)C(F)(F)F)CC2)NC(=O)[C@@H]2C[C@@H](O)CN2C(=O)[C@@H](NC(=O)C2(F)CC2)C(C)(C)C)cc1: ≤ 6.82
- CC1(C)CCC(CN2CCN(c3ccc(C(=O)NS(=O)(=O)c4ccc(N[C@H](CCN5CCN(CCCCCc6cccc7c6C(=O)N(C6CCC(=O)NC6=O)C7=O)CC5)CSc5ccccc5)c(S(=O)(=O)C(F)(F)F)c4)cc3)CC2)=C(C23CC(C(F)F)(C2)C3)C1 (stereo partly drawn): ≤ 6.82

----------
# Test system: MOLT-4 cells
# test details: MOLT-4 Cell Proliferation Assay (CellTiter-Glo)
# Format: cell-based
# condition info: Homo sapiens, 72 h, read-out: MOLT-4 CTG IC50
The entries below are paired with their reported IC50.
quantity: IC50

* Cc1ncsc1-c1ccc([C@H](C)NC(=O)[C@@H]2C[C@@H](O)CN2C(=O)[C@@H](NC(=O)CCCCCC(=O)N2CCN(CC[C@H](CSc3ccccc3)Nc3ccc(S(=O)(=O)NC(=O)c4ccc(N5CCN(CC6=C(C78CC(C)(C7)C8)CC(C)(C)CC6)CC5)cc4)cc3S(=O)(=O)C(F)(F)F)CC2)C(C)(C)C)cc1 | 50 to 150 nM
* Cc1ncsc1-c1ccc([C@H](C)NC(=O)[C@@H]2C[C@@H](O)CN2C(=O)[C@@H](NC(=O)CCCCC(=O)N2CCN(CC[C@H](CSc3ccccc3)Nc3ccc(S(=O)(=O)NC(=O)c4ccc(N5CCN(CC6=C(C78CC(C(F)F)(C7)C8)CC(C)(C)CC6)CC5)cc4)cc3S(=O)(=O)C(F)(F)F)CC2)C(C)(C)C)cc1 | ≥ 150 nM
* CC1(C)CCC(CN2CCN(c3ccc(C(=O)NS(=O)(=O)c4ccc(N[C@H](CCN5CCN(CCCCCCNc6cccc7c6C(=O)N(C6CCC(=O)NC6=O)C7=O)CC5)CSc5ccccc5)c(S(=O)(=O)C(F)(F)F)c4)cc3)CC2)=C(C23CC(C(F)F)(C2)C3)C1 (stereo partly shown) | ≥ 150 nM
* CC1(C)CCC(CN2CCN(c3ccc(C(=O)NS(=O)(=O)c4ccc(N[C@H](CCN5CCN(CCCC#Cc6cccc7c6CN(C6CCC(=O)NC6=O)C7=O)CC5)CSc5ccccc5)c(S(=O)(=O)C(F)(F)F)c4)cc3)CC2)=C(C23CC(C(F)F)(C2)C3)C1 (stereo partly shown) | ≤ 50 nM
* CC1(C)CCC(CN2CCN(c3ccc(C(=O)NS(=O)(=O)c4ccc(N[C@H](CCN5CCN(CCCC#Cc6ccc7c(c6)CN(C6CCC(=O)NC6=O)C7=O)CC5)CSc5ccccc5)c(S(=O)(=O)C(F)(F)F)c4)cc3)CC2)=C(C23CC(C(F)F)(C2)C3)C1 (stereo partly shown) | ≤ 50 nM
* Cc1ncsc1-c1ccc([C@H](C)NC(=O)[C@@H]2C[C@@H](O)CN2C(=O)[C@@H](NC(=O)CCCCCCCC(=O)N2CCN(CC[C@H](CSc3ccccc3)Nc3ccc(S(=O)(=O)NC(=O)c4ccc(N5CCN(CC6=C(C78CC(C)(C7)C8)CC(C)(C)CC6)CC5)cc4)cc3S(=O)(=O)C(F)(F)F)CC2)C(C)(C)C)cc1 | 50 to 150 nM
* Cc1ncsc1-c1ccc([C@H](C)NC(=O)[C@@H]2C[C@@H](O)CN2C(=O)[C@@H](NC(=O)CCCCCC(=O)N(C)C2CCN(CC[C@H](CSc3ccccc3)Nc3ccc(S(=O)(=O)NC(=O)c4ccc(N5CCN(CC6=C(C78CC(C(F)F)(C7)C8)CC(C)(C)CC6)CC5)cc4)cc3S(=O)(=O)C(F)(F)F)CC2)C(C)(C)C)cc1 | 50 to 150 nM

----------
# System: MOLT-4 cells
# test details: MOLT-4 Cell Proliferation Assay (CellTiter-Glo)
# Format: cell-based
# condition info: Homo sapiens, 72 h, read-out: MOLT-4 CTG IC50
quantity: IC50

- CC1(C)CCC(CN2CCN(c3ccc(C(=O)NS(=O)(=O)c4ccc(N[C@H](CCN5CCN(CCCNc6ccc7c(c6)C(=O)N(C6CCC(=O)NC6=O)C7=O)CC5)CSc5ccccc5)c(S(=O)(=O)C(F)(F)F)c4)cc3)CC2)=C(C23CC(C(F)F)(C2)C3)C1 (stereo partly shown): ≤ 50 nM
- CN(CCCCCCNc1cccc2c1C(=O)N(C1CCC(=O)NC1=O)C2=O)CC[C@H](CSc1ccccc1)Nc1ccc(S(=O)(=O)NC(=O)c2ccc(N3CCN(CC4=C(C56CC(C(F)F)(C5)C6)CC(C)(C)CC4)CC3)cc2)cc1S(=O)(=O)C(F)(F)F (stereo partly shown): 50 to 150 nM
- CN(CCCCCNc1cccc2c1C(=O)N(C1CCC(=O)NC1=O)C2=O)CC[C@H](CSc1ccccc1)Nc1ccc(S(=O)(=O)NC(=O)c2ccc(N3CCN(CC4=C(C56CC(C(F)F)(C5)C6)CC(C)(C)CC4)CC3)cc2)cc1S(=O)(=O)C(F)(F)F (stereo partly shown): ≤ 50 nM
- Cc1ncsc1-c1ccc([C@H](CC(=O)NCCCCCC(=O)N2CCN(CC[C@H](CSc3ccccc3)Nc3ccc(S(=O)(=O)NC(=O)c4ccc(N5CCN(CC6=C(C78CC(C(F)F)(C7)C8)CC(C)(C)CC6)CC5)cc4)cc3S(=O)(=O)C(F)(F)F)CC2)NC(=O)[C@@H]2C[C@@H](O)CN2C(=O)[C@@H](NC(=O)C2(F)CC2)C(C)(C)C)cc1: ≥ 150 nM
- Cc1ncsc1-c1ccc([C@H](CC(=O)NCCCCCCN(C)CC[C@H](CSc2ccccc2)Nc2ccc(S(=O)(=O)NC(=O)c3ccc(N4CCN(CC5=C(C67CC(C(F)F)(C6)C7)CC(C)(C)CC5)CC4)cc3)cc2S(=O)(=O)C(F)(F)F)NC(=O)[C@@H]2C[C@@H](O)CN2C(=O)[C@@H](NC(=O)C2(F)CC2)C(C)(C)C)cc1: ≥ 150 nM
- CC1(C)CCC(CN2CCN(c3ccc(C(=O)NS(=O)(=O)c4ccc(N[C@H](CCN5CCN(CCCNc6cccc7c6C(=O)N(C6CCC(=O)NC6=O)C7=O)CC5)CSc5ccccc5)c(S(=O)(=O)C(F)(F)F)c4)cc3)CC2)=C(C23CC(C(F)F)(C2)C3)C1 (stereo partly shown): ≤ 50 nM
- Cc1ncsc1-c1ccc([C@H](C)NC(=O)[C@@H]2C[C@@H](O)CN2C(=O)[C@@H](NC(=O)CCCCCCN2CCN(CC[C@H](CSc3ccccc3)Nc3ccc(S(=O)(=O)NC(=O)c4ccc(N5CCN(CC6=C(C78CC(C)(C7)C8)CC(C)(C)CC6)CC5)cc4)cc3S(=O)(=O)C(F)(F)F)CC2)C(C)(C)C)cc1: 50 to 150 nM

Taken from patent US20230167105A1.
